Reference source: ChEMBL document CHEMBL1136048

tested.target: 5-hydroxytryptamine receptor 7 (Homo sapiens, UniProt P34969)
Sequence (P34969 whole entry): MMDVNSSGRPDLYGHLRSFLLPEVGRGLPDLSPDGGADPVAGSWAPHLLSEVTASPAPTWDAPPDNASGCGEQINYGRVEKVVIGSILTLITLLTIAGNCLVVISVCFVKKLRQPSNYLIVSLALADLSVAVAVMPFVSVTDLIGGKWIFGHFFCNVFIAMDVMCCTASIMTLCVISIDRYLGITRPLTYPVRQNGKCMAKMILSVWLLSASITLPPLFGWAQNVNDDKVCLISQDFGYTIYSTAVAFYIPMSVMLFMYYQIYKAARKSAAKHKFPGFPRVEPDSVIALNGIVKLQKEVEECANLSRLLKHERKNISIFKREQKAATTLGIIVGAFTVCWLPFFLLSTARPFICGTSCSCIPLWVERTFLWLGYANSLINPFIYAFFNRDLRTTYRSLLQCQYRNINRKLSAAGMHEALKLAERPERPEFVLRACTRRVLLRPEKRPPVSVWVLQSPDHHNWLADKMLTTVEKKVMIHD
assay.text: Binding affinity to human recombinant 5-hydroxytryptamine 7 receptor in mammalian cells using [3H]5-CT as radioligand
Ki: recorded values

{"columns": ["molecule", "unit.of.measurement", "Ki"],
 "data": [
  ["C=CCn1c2c(c3ccccc31)CCN(CCCCC13CCCc4cccc(c41)NC3=O)C2 (stereo unspecified)", "nM", 6.03],
  ["CC(=O)n1c2c(c3ccccc31)CCN(CCCCC13CCCc4cccc(c41)NC3=O)C2 (stereo unspecified)", "nM", 6.46],
  ["O=C1Nc2ccc(O)c3c2C1(CCCCN1CC=C(c2ccccc2)CC1)CCC3 (stereo unspecified)", "nM", 8.13],
  ["O=C1Nc2cccc3c2C1(CCCCN1CCN(c2ccccc2Cl)CC1)CCC3 (stereo unspecified)", "nM", 12.3],
  ["NC(=O)Cn1c2c(c3ccccc31)CCN(CCCCC13CCCc4cccc(c41)NC3=O)C2 (stereo unspecified)", "nM", 8.71],
  ["CN(C)C(=O)n1c2c(c3ccccc31)CCN(CCCCC13CCCc4cccc(c41)NC3=O)C2 (stereo unspecified)", "nM", 7.08]
]}

###

tested.target: Serotonin 2 (5-HT2) receptor (Rattus norvegicus, UniProt P30994+P08909+P14842)
assay.text: In vitro binding affinity to 5-hydroxytryptamine 2 receptor of rat cerebral cortex membranes using [3H]ketanserin as the radioligand
Type: tissue-based, Membrane
In this section we review reported Log Ki values for a set of molecules.

{"columns": ["molecule", "censoring.qualifier", "Log Ki"],
 "data": [
  ["O=C1Nc2cccc3c2C1(CCCCN1CC=C(c2ccc(F)cc2)CC1)CCC3 (centres undefined)", "=", -7.1],
  ["O=C1Nc2cccc3c2C1(CCCCN1CCN(C2CCCCC2)CC1)CCC3 (centres undefined)", "<", -6],
  ["Cc1ccc(C2=CCN(CCCCC34CCCc5cccc(c53)NC4=O)CC2)cc1 (centres undefined)", "=", -6.94],
  ["CNC(=O)Cn1c2c(c3ccccc31)CCN(CCCCC13CCCc4cccc(c41)NC3=O)C2 (centres undefined)", "<", -6],
  ["O=C1Nc2cccc3c2C1(CCCCN1CCN(c2ccccc2Cl)CC1)CCC3 (centres undefined)", "=", -7.01],
  ["Cn1c2c(c3ccccc31)CCN(CCCCC13CCCc4cccc(c41)NC3=O)C2 (centres undefined)", "=", -6.28],
  ["Cc1ccccc1N1CCN(CCCCC23CCCc4cccc(c42)NC3=O)CC1 (centres undefined)", "=", -7.35],
  ["COc1ccc(N2CCN(CCCCC34CCCc5cccc(c53)NC4=O)CC2)cc1 (centres undefined)", "=", -6.69],
  ["COc1ccc2[nH]c3c(c2c1)CCN(CCCCC12CCCc4cccc(c41)NC2=O)C3 (centres undefined)", "=", -6.17],
  ["COC1(c2ccccc2)CCN(CCCCC23CCCc4cccc(c42)NC3=O)CC1 (centres undefined)", "=", -6.43],
  ["CN1C(=O)C2(CCCCN3CC=C(c4ccccc4)CC3)CCCc3cccc1c32 (centres undefined)", "=", -6.88],
  ["COCn1c2c(c3ccccc31)CCN(CCCCC13CCCc4cccc(c41)NC3=O)C2 (centres undefined)", "=", -6.24],
  ["O=C1Nc2cccc3c2C1(CCCCN1CCC(c2ccccc2)CC1)CCC3 (centres undefined)", "=", -6.84],
  ["NCCc1c[nH]c2ccc(C(N)=O)cc12", "<", -6],
  ["CC(=O)C1(c2ccccc2)CCN(CCCCC23CCCc4cccc(c42)NC3=O)CC1 (centres undefined)", "=", -7.01],
  ["O=C1Nc2cccc3c2C1(CCCCN1CCN(c2ncccn2)CC1)CCC3 (centres undefined)", "=", -6.91],
  ["C=CCn1c2c(c3ccccc31)CCN(CCCCC13CCCc4cccc(c41)NC3=O)C2 (centres undefined)", "=", -6.55],
  ["CN(C)C(=O)Cn1c2c(c3ccccc31)CCN(CCCCC13CCCc4cccc(c41)NC3=O)C2 (centres undefined)", "<", -6],
  ["O=C1Nc2ccc(O)c3c2C1(CCCCN1CC=C(c2ccccc2)CC1)CCC3 (centres undefined)", "=", -7.4]
]}

###

tested.target: 5-hydroxytryptamine receptor 7 (Homo sapiens)
assay.text: Binding affinity to human recombinant 5-hydroxytryptamine 7 receptor in mammalian cells using [3H]5-CT as radioligand
Assay type: cell-based
pKi: −log10 of the molar value.
pKi values by entry
measured.parameter: pKi

{"columns": ["compound", "reported.value"],
 "data": [
  ["O=C1Nc2cccc3c2C1(CCCCN1CCN(c2ccccc2[N+](=O)[O-])CC1)CCC3 (stereo not drawn)", 7.62],
  ["O=C1Nc2cccc3c2C1(CCCCN1CCc2c([nH]c4ccccc24)C1)CCC3 (stereo not drawn)", 8.24],
  ["Cc1ccccc1N1CCN(CCCCC23CCCc4cccc(c42)NC3=O)CC1 (stereo not drawn)", 7.98]
]}
